Biological target: T1, human CD3E&G complex (Sino Biological Inc., CT041-H0305H) (human, UniProt P07766 23-126; P09693 23-116)
T1 construct: bought heterodimer; also called human CD3E&G antigen
T1 sequence (P07766 23-126, chain 1 of 2): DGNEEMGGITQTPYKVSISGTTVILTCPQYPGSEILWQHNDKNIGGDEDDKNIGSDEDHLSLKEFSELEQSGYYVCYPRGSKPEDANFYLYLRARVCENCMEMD
T1 sequence (P09693 23-116, chain 2 of 2): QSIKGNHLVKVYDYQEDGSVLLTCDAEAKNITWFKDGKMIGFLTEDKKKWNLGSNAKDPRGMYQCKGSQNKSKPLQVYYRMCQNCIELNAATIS
Assay: BLI, antibody on sensor
Attribute: koff
Quick reminder: number only, in s⁻¹, skip the unit.

QUERY: Please report koff for the following binder: hzsp34.100 (antibody, human IgG1, lambda, L234A L235A, V domains shown, CDR mutant of hzsp34.24; IgG1 L234A L235A, lambda) VH: EVQLVESGGGLVQPGGSLKLSCAASGFTFNTYAMNWVRQASGKGLEWVGRIRSKYNNYATYYADSVKDRFTISRDDSKSTLYLQMNSLKTEDTAVYYCARHGNFGGRYVSWFAYWGQGTTVTVSS VL: QAVVTQEPSLTVSPGGTVTLTCRSSTGAVTTSNYANWVQQKPGQAPRGLIGGTNKRAPGVPARFSGSLLGDKAALTLLGAQPEDEAEYYCALWYSNLWVFGQGTKLTVLG
RESULT: 0.00171

QUERY: Please report koff for the following binder: hzsp34.114 (antibody, human IgG1, lambda, L234A L235A, V domains shown, CDR mutant of hzsp34.24; IgG1 L234A L235A, lambda) VH: EVQLVESGGGLVQPGGSLKLSCAASGFTFNTYAMNWVRQASGKGLEWVGRIRSKYNNYATYYADSVKDRFTISRDDSKSTLYLQMNSLKTEDTAVYYCARHGNFGQSYVSWFAYWGQGTTVTVSS VL: QAVVTQEPSLTVSPGGTVTLTCRSSTGAVTTSNYANWVQQKPGQAPRGLIGGTNKRAPGVPARFSGSLLGDKAALTLLGAQPEDEAEYYCALWYRGLWVFGQGTKLTVLG
RESULT: 0.00134

QUERY: Please report koff for the following binder: hzsp34.112 (antibody, human IgG1, lambda, L234A L235A, V domains shown, CDR mutant of hzsp34.24; IgG1 L234A L235A, lambda) VH: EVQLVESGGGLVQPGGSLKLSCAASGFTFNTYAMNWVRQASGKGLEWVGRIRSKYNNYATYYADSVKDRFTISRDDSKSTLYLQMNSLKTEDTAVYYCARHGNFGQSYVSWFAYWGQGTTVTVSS VL: QAVVTQEPSLTVSPGGTVTLTCRSSTGAVTTRGYANWVQQKPGQAPRGLIGGTNKRAPGVPARFSGSLLGDKAALTLLGAQPEDEAEYYCALWYSNLWVFGQGTKLTVLG
RESULT: 0.00155

More entries:
QUERY: Please report koff for the following binder: hzsp34.24 (antibody, human IgG1, lambda, L234A L235A, V domains shown, IgG1 L234A L235A, lambda; parent of the CDR mutants) VH: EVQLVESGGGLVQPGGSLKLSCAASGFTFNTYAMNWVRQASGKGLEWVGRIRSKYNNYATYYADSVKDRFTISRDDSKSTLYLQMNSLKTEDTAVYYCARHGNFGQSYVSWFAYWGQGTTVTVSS VL: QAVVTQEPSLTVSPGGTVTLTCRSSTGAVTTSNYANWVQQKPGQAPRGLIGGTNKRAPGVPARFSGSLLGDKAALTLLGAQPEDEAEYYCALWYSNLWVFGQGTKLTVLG
RESULT: 0.00179
